methodDescription: Pharmacokinetic study after single topical administration of ointment to the skin of Bama miniature pigs (LC-MS/MS)
Format: in vivo
conditionSet: pig, topical or ocular, plasma, 3% suspension ointment, 20 mg/cm^2, mean

| smilesRecord | valueUnit | MRT inf |
| --- | --- | --- |
| NC(=O)[C@H]1CCCc2c1[nH]c1ccc(Cl)cc21 | h | 15.2 |

###

methodDescription: Pharmacokinetic study after single topical administration of ointment to the skin of CD-1 mice (LC-MS/MS)
Type: in vivo
conditionSet: mouse, topical or ocular, plasma, 3% suspension ointment, 1 mg/cm^2, mean

| smilesRecord | AUC(0-t) / µg·h/mL |
| --- | --- |
| NC(=O)[C@H]1CCCc2c1[nH]c1ccc(Cl)cc21 | 0.0407 |

###

methodDescription: Pharmacokinetic study after single topical administration of ointment to the skin of CD-1 mice (LC-MS/MS)
Type: in vivo
conditionSet: mouse, topical or ocular, plasma, 3% suspension ointment, 1 mg/cm^2, mean
Method: 6 CD-1 mice were divided into 2 groups, with 3 mice per group, and then respectively received an ointment containing the compound of formula (I) by single topical administration to the backs at 1 mg/cm^2 (3% suspension ointment) with an application area of 1 cm^2. The plasma concentration and skin tissue homogenate concentration of the compound of formula (I) were determined by an LC-MS/MS method.

| smilesRecord | Tmax (h) |
| --- | --- |
| NC(=O)[C@H]1CCCc2c1[nH]c1ccc(Cl)cc21 | 1.67 |

###

methodDescription: Pharmacokinetic study after single topical administration of ointment to the skin of CD-1 mice (LC-MS/MS)
Type: in vivo
conditionSet: mouse, dorsal skin tissue homogenate, 3% suspension ointment, 1 mg/cm^2, mean, read-out: Drug concentration in skin tissues at 4 h
Description: 6 CD-1 mice were divided into 2 groups, with 3 mice per group, and then respectively received an ointment containing the compound of formula (I) by single topical administration to the backs at 1 mg/cm^2 (3% suspension ointment) with an application area of 1 cm^2. The plasma concentration and skin tissue homogenate concentration of the compound of formula (I) were determined by an LC-MS/MS method.

| smilesRecord | valueUnit | concentration at 4 h |
| --- | --- | --- |
| NC(=O)[C@H]1CCCc2c1[nH]c1ccc(Cl)cc21 | ng/g | 33000 |

###

methodDescription: Pharmacokinetic study after single topical administration of ointment to the skin of CD-1 mice (LC-MS/MS)
Assay type: in vivo
conditionSet: mouse, dorsal skin tissue homogenate, 3% suspension ointment, 1 mg/cm^2, mean, read-out: Drug concentration in skin tissues at 24 h

| compound | valueUnit | concentration at 24 h |
| --- | --- | --- |
| NC(=O)[C@H]1CCCc2c1[nH]c1ccc(Cl)cc21 [Compound of formula (I)] | ng/g | 7910 |

###

methodDescription: Pharmacokinetic study after single topical administration of ointment to the skin of SD rats (LC-MS/MS)
Type: in vivo
conditionSet: rat, dorsal skin tissue homogenate, 20 mg/cm^2, SD rats, dorsal skin homogenate, 3% suspension ointment, 20 mg/cm^2, 20 cm^2, mean, read-out: Drug concentration in skin tissues at 24 h

| smilesRecord | concentration at 24 h |
| --- | --- |
| NC(=O)[C@H]1CCCc2c1[nH]c1ccc(Cl)cc21 | 161000 ng/g |

###

methodDescription: Pharmacokinetic study after single topical administration of ointment to the skin of Bama miniature pigs (LC-MS/MS)
Format: in vivo
conditionSet: pig, abdominal skin tissue, 3% suspension ointment, 20 mg/cm^2, mean, read-out: Drug concentration in abdominal skin tissues at 24 h

| compound | concentration at 24 h, ng/g |
| --- | --- |
| NC(=O)[C@H]1CCCc2c1[nH]c1ccc(Cl)cc21 [Compound of formula (I)] | 111000 |

###

methodDescription: Pharmacokinetic study after single topical administration of ointment to the skin of CD-1 mice (LC-MS/MS)
Type: in vivo
conditionSet: mouse, topical or ocular, plasma, 3% suspension ointment, 1 mg/cm^2, 1 cm^2, mean

| smilesRecord | Cmax (ng/mL) |
| --- | --- |
| NC(=O)[C@H]1CCCc2c1[nH]c1ccc(Cl)cc21 | 14 |

###

methodDescription: Pharmacokinetic study after single topical administration of ointment to the skin of Bama miniature pigs (LC-MS/MS)
Type: in vivo
conditionSet: pig, 3% suspension ointment, 20 mg/cm^2, mean, read-out: Drug concentration in dorsal dermis skin tissues at 24 h

| molecule | concentration at 24 h [ng/g] |
| --- | --- |
| NC(=O)[C@H]1CCCc2c1[nH]c1ccc(Cl)cc21 [Compound of formula (I)] | 88300 |

###

methodDescription: Pharmacokinetic study after single topical administration of ointment to the skin of Bama miniature pigs (LC-MS/MS)
Type: in vivo
conditionSet: pig, topical or ocular, plasma, 3% suspension ointment, 20 mg/cm^2, mean
quantity: Cmax (ng/mL)

| smilesRecord | quantity | reading |
| --- | --- | --- |
| NC(=O)[C@H]1CCCc2c1[nH]c1ccc(Cl)cc21 | Cmax | 21.6 |

###

methodDescription: Pharmacokinetic study after single topical administration of ointment to the skin of Bama miniature pigs (LC-MS/MS)
Assay type: in vivo
conditionSet: pig, topical or ocular, plasma, 3% suspension ointment, 20 mg/cm^2, mean
quantity: AUC(0-t)

| molecule | quantity | reading |
| --- | --- | --- |
| NC(=O)[C@H]1CCCc2c1[nH]c1ccc(Cl)cc21 [Compound of formula (I)] | AUC(0-t) | 0.304 µg·h/mL |

###

methodDescription: Pharmacokinetic study after single topical administration of ointment to the skin of CD-1 mice (LC-MS/MS)
Assay type: in vivo
conditionSet: mouse, topical or ocular, plasma, 3% suspension ointment, 1 mg/cm^2, mean
quantity: AUC(0-inf) (ng·h/mL)

| smilesRecord | valueUnit | reading |
| --- | --- | --- |
| NC(=O)[C@H]1CCCc2c1[nH]c1ccc(Cl)cc21 | ng·h/mL | 57.5 |
